Origin of values: patent US9181236B2

pKi: −log10 of the molar value.
Below are pKi values measured for soluble human BACE1 catalytic domain (Homo sapiens (Human), UniProt P56817).
endpoint name: pKi

>  <molecule>
COc1ccc(C(=O)Nc2ccc(F)c([C@]3(C)CS(=O)(=O)[C@@]4(CCOC4)C(=N)N3)c2)nc1 [Example 63a]

>  <pKi>
7.62

$$$$
>  <molecule>
COc1cccc2cc(-c3cc(Cl)c([C@]4(C)CS(=O)(=O)C5(CCC5)C(=N)N4)s3)[nH]c12

>  <pKi>
8.11

$$$$
>  <molecule>
C[C@@]1(c2sc(-c3cncc(N4CCOCC4)c3)cc2Cl)CS(=O)(=O)[C@@]2(CCOC2)C(=N)N1 [Example 63j]

>  <pKi>
5.43

$$$$
>  <molecule>
C[C@@]1(c2cc(NC(=O)c3ccc(F)cn3)ccc2F)CS(=O)(=O)C2(CC(O)C2)C(=N)N1 (some centres unmarked) [Example 74]

>  <pKi>
7.66

$$$$

(1) C[C@@]1(c2cc(NC(=O)c3ccc(C#N)cn3)ccc2F)CS(=O)(=O)C2(CCCCC2)C(=N)N1
(2) C[C@@]1(c2cc(N)ccc2F)CS(=O)(=O)C2(CCCC2)C(=N)N1
(3) Cn1ccc(NC(=O)c2cc(Cl)c([C@]3(C)CS(=O)(=O)C4(CCCCC4)C(=N)N3)s2)n1 [Example 80j]
(4) C[C@@]1(c2cc(NC(=O)C(F)F)ccc2F)CS(=O)(=O)[C@]2(CCOC2)C(=N)N1 [Example 81n]
Could you please sort these 4 entries by pKi from high to low? Answer format: the labels, ordered as requested.
1, 4, 3, 2

* * *

pKi: −log10 of the molar value.
Target or system soluble human BACE1 catalytic domain (Homo sapiens (Human), UniProt P56817); recorded quantity pKi.
endpoint name: pKi

>  <molecule>
C[C@@]1(c2sc(C(=O)NCc3cnn4ccccc34)cc2Cl)CS(=O)(=O)C2(CCCCC2)C(=N)N1 [Example 80b]

>  <pKi>
7.39

$$$$
>  <molecule>
C[C@@]1(c2cc(NC(=O)c3ccc(F)cn3)ccc2F)CS(=O)(=O)C2(CCC(O)C2)C(=N)N1 (single isomer, unassigned) [Example 76a]

>  <pKi>
8.03

$$$$
>  <molecule>
Cc1ccc(C(=O)Nc2ccc(F)c([C@]3(C)CS(=O)(=O)[C@]4(CCOC4)C(=N)N3)c2)nc1 [Example 81y]

>  <pKi>
7.39

$$$$

(P) C[C@@]1(c2cc(NC(=O)c3ncc(Cl)cc3Cl)ccc2F)CS(=O)(=O)C2(CCOCC2)C(=N)N1 [Example 31]
(Q) Cc1cnc(C(=O)Nc2ccc(F)c([C@]3(C)CS(=O)(=O)[C@]4(CCOC4)C(=N)N3)c2)cn1 [Example 81h]
(R) CC1(C(=O)Nc2ccc(F)c([C@]3(C)CS(=O)(=O)[C@]4(CCOC4)C(=N)N3)c2)CC1 [Example 81e]
(S) C[C@@]1(c2cc(NC(=O)c3ccno3)ccc2F)CS(=O)(=O)[C@]2(CCOC2)C(=N)N1 [Example 81b]
Order by pKi, ascending. Reply: labels, ordered per the request.
R, S, Q, P

* * *

experimental system: soluble human BACE1 catalytic domain (Homo sapiens (Human))
pKi: −log10 of the molar value.
endpoint name: pKi

Before answering, review these 4 worked examples.
>  <compound>
C[C@@]1(c2cc(NC(=O)c3ccc(F)cn3)ccc2F)CS(=O)(=O)C2(CC(O)C2)C(=N)N1 (some centres unmarked) [Example 75]

>  <pKi>
7.90

$$$$
>  <compound>
C[C@@]1(c2sc(Br)cc2Cl)CS(=O)(=O)C2(CC2)C(=N)N1

>  <pKi>
6.04

$$$$
>  <compound>
C[C@@]1(c2cc(NC(=O)c3ccc(F)cn3)ccc2F)CS(=O)(=O)[C@@]2(CCOC2)C(=N)N1 [Example 63b]

>  <pKi>
7.73

$$$$
>  <compound>
C[C@@]1(c2sc(C(=O)Nc3cccc(Cl)n3)cc2Cl)CS(=O)(=O)C2(CC2)C(=N)N1 [Example 79b]

>  <pKi>
7.77

$$$$

(P) C[C@@]1(c2cc(NC(=O)c3ccc(F)cn3)ccc2F)CS(=O)(=O)C2(CCC2)C(=N)N1
(Q) C[C@@]1(c2sc(C#CCN3CCOCC3)cc2Cl)CS(=O)(=O)C2(CCC2)C(=N)N1 [Example 77d]
(R) C[C@@]1(c2cc(-c3cncc(Cl)c3)ccc2F)CS(=O)(=O)C2(CCCC2)C(=N)N1
(S) C[C@@]1(c2sc(-c3cncc(C#N)c3)cc2Cl)CS(=O)(=O)[C@@]2(CCOC2)C(=N)N1 [Example 63e]
Order the records by pKi, with each subsequent value no larger than the one before. Record the ranking as a list of labels in the requested order.
P, S, R, Q
(P: 7.77, S: 6.72, R: 6.34, Q: 5.63)

* * *

experimental system: soluble human BACE1 catalytic domain (Homo sapiens (Human), UniProt P56817)
Sequence (P56817 75-416): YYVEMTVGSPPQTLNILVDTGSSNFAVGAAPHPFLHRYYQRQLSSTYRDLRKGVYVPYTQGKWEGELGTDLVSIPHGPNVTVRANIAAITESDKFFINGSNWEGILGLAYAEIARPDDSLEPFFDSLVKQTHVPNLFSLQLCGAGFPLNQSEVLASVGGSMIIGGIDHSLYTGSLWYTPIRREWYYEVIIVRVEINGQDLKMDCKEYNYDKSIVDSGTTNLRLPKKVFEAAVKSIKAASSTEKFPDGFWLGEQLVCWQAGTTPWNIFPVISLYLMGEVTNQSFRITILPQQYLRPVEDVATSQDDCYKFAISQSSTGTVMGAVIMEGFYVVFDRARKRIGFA
endpoint name: Ki (nM)

>  <compound>
COc1cccc(NC(=O)c2cc(Cl)c([C@]3(C)CS(=O)(=O)C4(CC4)C(=N)N3)s2)n1 [Example 79a]

>  <experimental system>
soluble human BACE1 catalytic domain (Homo sapiens (Human), UniProt P56817)

>  <unit spec>
nM

>  <Ki>
74

$$$$

(A) C[C@@]1(c2cc(-n3cc(-c4ccccc4)nn3)ccc2F)CS(=O)(=O)C2(CCC2)C(=N)N1 [Example 39a]
(B) C[C@@]1(c2sc(-c3cccc(-c4nnco4)c3)cc2Cl)CS(=O)(=O)C2(CCOCC2)C(=N)N1 [Example 57a]
(C) C[C@@]1(c2sc(-c3cncc(C#N)c3)cc2Cl)CS(=O)(=O)C2(CC2)C(=N)N1 [Example 65]
(D) C[C@@]1(c2sc(-c3cncnc3)cc2Cl)CS(=O)(=O)C2(CCC2)C(=N)N1 [Example 60]
(E) COc1cccc2cc(-c3cc(Cl)c([C@]4(C)CS(=O)(=O)C5(CCOCC5)C(=N)N4)s3)[nH]c12 [Example 48]
Your job: order these 5 records by Ki, ascending. The response must list the labels following the requested ordering.
E, B, C, D, A
(E: 19.8 nM, B: 34.9 nM, C: 108 nM, D: 374 nM, A: 2320 nM)

(A) C[C@@]1(c2cc(NC(=O)C3(C#N)CC3)ccc2F)CS(=O)(=O)[C@]2(CCOC2)C(=N)N1 [Example 81i]
(B) Cc1cc2cccc(NC(=O)c3cc(Cl)c([C@]4(C)CS(=O)(=O)C5(CCCCC5)C(=N)N4)s3)c2o1 [Example 80i]
(C) COc1cccc2cc(-c3ccc(F)c([C@]4(C)CS(=O)(=O)C5(CCCC5)C(=N)N4)c3)n(C(=O)OC(C)(C)C)c12 [Example 39]
(D) C[C@@]1(c2cc(NC(=O)c3ncccc3C(F)(F)F)ccc2F)CS(=O)(=O)[C@]2(CCOC2)C(=N)N1 [Example 81ab]
(E) C[C@@]1(c2cc(NC(=O)c3cncs3)ccc2F)CS(=O)(=O)[C@]2(CCOC2)C(=N)N1 [Example 81t]
List items by Ki in falling order. Write the labels in rank order as requested.
B, E, C, A, D
(B: 6050 nM, E: 1940 nM, C: 1330 nM, A: 741 nM, D: 146 nM)

(A) C[C@@]1(c2cc(NC(=O)c3ncc(F)cc3F)ccc2F)CS(=O)(=O)[C@]2(CCOC2)C(=N)N1 [Example 81k]
(B) C[C@@]1(c2cc(-n3cc(-c4cccnc4)nn3)ccc2F)CS(=O)(=O)C2(CCC2)C(=N)N1 [Example 39b]
Between A and B , whose measured Ki reads higher? Select an item and report its label.
B
(B: 8560 nM, A: 26 nM)

* * *

Entries with their measured Ki, system soluble human BACE1 catalytic domain (Homo sapiens (Human)):
endpoint name: Ki (µM)

# annotated cases, reported Ki shown
>  <molecule>
COc1cnc(C(=O)Nc2ccc(F)c([C@]3(C)CS(=O)(=O)C4(CC4)C(=N)N3)c2)cn1

>  <unit spec>
µM

>  <measured>
0.0042

$$$$
>  <molecule>
C[C@@]1(c2cc(NC(=O)c3ncc(Cl)cc3F)ccc2F)CS(=O)(=O)C2(CCOCC2)C(=N)N1 [Example 35a]

>  <unit spec>
µM

>  <measured>
0.0065

$$$$
>  <molecule>
C[C@@]1(c2cc(NC(=O)c3ccc(S(C)(=O)=O)cn3)ccc2F)CS(=O)(=O)[C@]2(CCOC2)C(=N)N1 [Example 81z]

>  <unit spec>
µM

>  <measured>
3.17

$$$$
>  <molecule>
C[C@@]1(c2sc(-c3cncc(C#N)c3)cc2Cl)CS(=O)(=O)C2(CCCC2)C(=N)N1

>  <unit spec>
µM

>  <measured>
0.0183

$$$$
>  <molecule>
C[C@@]1(c2sc(-c3ccnc(-c4ccoc4)c3)cc2Cl)CS(=O)(=O)[C@]2(CCOC2)C(=N)N1 [Example 62j]

>  <unit spec>
µM

>  <measured>
0.296

$$$$

(P) CCC(=O)Nc1ccc(F)c([C@]2(C)CS(=O)(=O)[C@]3(CCOC3)C(=N)N2)c1 [Example 81l]
(Q) COc1ccc(C(=O)Nc2ccc(F)c([C@]3(C)CS(=O)(=O)C4(CCCC4)C(=N)N3)c2)nc1
Choose between P and Q : whose measured Ki value is numerically larger? Field: selected label. Fill in the label of the entry you choose.
P

(a) C[C@@]1(c2cc(NC(=O)c3ccc(C(F)(F)F)cn3)ccc2F)CS(=O)(=O)[C@]2(CCOC2)C(=N)N1 [Example 62d]
(b) COCC(=O)Nc1ccc(F)c([C@]2(C)CS(=O)(=O)[C@]3(CCOC3)C(=N)N2)c1 [Example 81w]
(c) CC(C)(O)c1cncc(-c2cc(Cl)c([C@]3(C)CS(=O)(=O)[C@]4(CCOC4)C(=N)N3)s2)c1 [Example 62m]
(d) C[C@@]1(c2sc(-c3cccc(-c4nnco4)c3)cc2Cl)CS(=O)(=O)C2(CC2)C(=N)N1 [Example 65a]
Arrange the 4 molecules from largest to smallest Ki. List the labels according to the requested ordering.
c, b, a, d
(c: 2.42 µM, b: 0.429 µM, a: 0.017 µM, d: 0.011 µM)

(1) CCc1cncc(-c2cc(Cl)c([C@]3(C)CS(=O)(=O)[C@@]4(CCOC4)C(=N)N3)s2)c1 [Example 63i]
(2) COc1ccc(C(=O)Nc2ccc(F)c([C@]3(C)CS(=O)(=O)[C@]4(CCOC4)C(=N)N3)c2)nn1 [Example 81ae]
Two entries are listed, 1 and 2 . Which one carries the higher Ki? Which one? Tell me its label.
1
(1: 1.78 µM, 2: 0.904 µM)
